- target desc: Amine oxidase [flavin-containing] A (Rattus norvegicus)
- Sequence (P21396 whole entry): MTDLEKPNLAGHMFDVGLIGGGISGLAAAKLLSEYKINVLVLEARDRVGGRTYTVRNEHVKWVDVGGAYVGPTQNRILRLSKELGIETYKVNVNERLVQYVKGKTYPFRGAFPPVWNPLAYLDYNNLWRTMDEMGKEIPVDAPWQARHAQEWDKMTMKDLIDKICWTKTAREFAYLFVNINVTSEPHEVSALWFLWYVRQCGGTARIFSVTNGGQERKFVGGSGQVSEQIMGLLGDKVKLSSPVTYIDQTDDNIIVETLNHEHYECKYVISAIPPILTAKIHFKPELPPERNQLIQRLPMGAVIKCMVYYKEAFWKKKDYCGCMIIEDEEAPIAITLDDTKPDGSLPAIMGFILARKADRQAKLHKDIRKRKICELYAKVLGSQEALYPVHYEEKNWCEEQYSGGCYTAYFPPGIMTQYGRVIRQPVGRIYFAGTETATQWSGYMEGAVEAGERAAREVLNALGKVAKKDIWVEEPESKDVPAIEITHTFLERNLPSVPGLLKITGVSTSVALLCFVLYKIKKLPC
pIC50: −log10 of the molar value.
measurement name: pIC50

> print(dat)
                     smi  number
1  O=c1ccc2ccc3occc3c2o1    5.05

###

Overview of recorded IC50 for various compounds
- target desc: Amine oxidase [flavin-containing] A (Homo sapiens, UniProt P21397)
- Sequence (P21397 whole entry): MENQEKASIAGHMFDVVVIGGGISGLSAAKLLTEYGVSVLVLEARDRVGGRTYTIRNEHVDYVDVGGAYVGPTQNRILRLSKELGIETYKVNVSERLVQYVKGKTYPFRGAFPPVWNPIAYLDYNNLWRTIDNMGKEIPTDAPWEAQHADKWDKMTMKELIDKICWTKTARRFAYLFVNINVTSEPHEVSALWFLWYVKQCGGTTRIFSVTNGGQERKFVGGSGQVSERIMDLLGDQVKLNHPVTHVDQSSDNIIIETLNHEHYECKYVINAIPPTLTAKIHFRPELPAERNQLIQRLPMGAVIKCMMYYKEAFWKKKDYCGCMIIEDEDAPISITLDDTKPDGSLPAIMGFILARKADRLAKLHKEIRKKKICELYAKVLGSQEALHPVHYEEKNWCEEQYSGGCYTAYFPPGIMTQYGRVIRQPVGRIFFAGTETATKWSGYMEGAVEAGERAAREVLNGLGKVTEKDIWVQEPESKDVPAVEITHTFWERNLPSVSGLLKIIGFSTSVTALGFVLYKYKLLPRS
- measurement protocol: biochemical
measurement name: IC50

> print(dat)
                                smi  measurement.name   result
1             COc1cc2ccc(=O)oc2cc1O              IC50  > 20 µM
2  CC(C)=CCOc1c2ccoc2cc2oc(=O)ccc12              IC50  > 20 µM
3             O=c1ccc2cc3ccoc3cc2o1              IC50  > 20 µM
